Some molecules, each annotated with its measured pIC50.
target: CDK2/Cyclin A2 (Homo sapiens); assay: Inhibition of CDK2/cyclin A (unknown origin) using histone H1 as substrate after 30 mins in presence of [33P]-gamma-ATP
As a rule, pIC50 stands for the negative log10 of the concentration, concentration in M.

SMILES_STR	EXPERIMENTAL_ENDPOINT	MEASURED_RESULT
COc1ccc2[nH]c(-c3cnc4[nH]cc(-c5ccnc(N)n5)c4c3)cc2c1	pIC50	7.80
Nc1nccc(-c2c[nH]c3ncc(-c4cc5ccccc5s4)cc23)n1	pIC50	7.92

Moving on to another molecule below.
Form field: reported pIC50 of Nc1nccc(-c2c[nH]c3ncc(-c4cccc5ccccc45)cc23)n1
6.74
